procedureText: Antiproliferative activity against human MCF7 cells after 48 hrs by SRB assay
Format: functional
testContext: MCF7, 48 h
Binary label based on GI50 with cut-off 2 µM: below gives label 1, not below gives label 0.

Qu. Say whether its GI50 is strictly beneath 2 µM. Entry: COc1ccc(-c2nn(-c3ccccc3)cc2C(=O)NCc2cn(Cc3ccc(C(F)(F)F)cc3)nn2)cc1
Ans. label 0

Qu. Say whether its GI50 is strictly beneath 2 µM. Entry: COc1cc(Cn2cc(CNC(=O)c3cn(-c4ccccc4)nc3-c3ccc(F)cc3)nn2)cc(OC)c1
Ans. label 0

Qu. Say whether its GI50 is strictly beneath 2 µM. Entry: COc1ccc(Cn2cc(CNC(=O)c3cn(-c4ccccc4)nc3-c3ccccc3)nn2)cc1
Ans. label 0

Qu. Say whether its GI50 is strictly beneath 2 µM. Entry: O=C(NCc1cn(Cc2ccc(Cl)cc2)nn1)c1cn(-c2ccccc2)nc1-c1ccc(F)cc1
Ans. label 1

Qu. Say whether its GI50 is strictly beneath 2 µM. Entry: COc1ccc(-c2nn(-c3ccccc3)cc2C(=O)NCc2cn(Cc3ccc(F)cc3)nn2)cc1
Ans. label 1

Qu. Say whether its GI50 is strictly beneath 2 µM. Entry: COc1ccc(-c2nn(-c3ccccc3)cc2C(=O)NCc2cn(Cc3ccc(Cl)cc3)nn2)cc1
Ans. label 0

Qu. Say whether its GI50 is strictly beneath 2 µM. Entry: COc1ccc(Cn2cc(CNC(=O)c3cn(-c4ccccc4)nc3-c3ccc(F)cc3)nn2)cc1
Ans. label 1

Qu. Say whether its GI50 is strictly beneath 2 µM. Entry: O=C(NCc1cn(Cc2ccc(F)cc2)nn1)c1cn(-c2ccccc2)nc1-c1ccc(F)cc1
Ans. label 0

Qu. Say whether its GI50 is strictly beneath 2 µM. Entry: O=C(NCc1cn(Cc2ccc(C(F)(F)F)cc2)nn1)c1cn(-c2ccccc2)nc1-c1ccccc1
Ans. label 1

Qu. Say whether its GI50 is strictly beneath 2 µM. Entry: O=C(NCc1cn(Cc2ccc(F)cc2)nn1)c1cn(-c2ccccc2)nc1-c1ccccc1
Ans. label 0

Qu. Say whether its GI50 is strictly beneath 2 µM. Entry: COc1cc(Cn2cc(CNC(=O)c3cn(-c4ccccc4)nc3-c3ccccc3)nn2)cc(OC)c1
Ans. label 0
